- tgt: Cyclooxygenase (Rattus norvegicus, UniProt P35355+Q63921)
- protocol-details: Inhibition of Prostaglandin G/H synthase mediated PGF2-alpha formation in rat basophilic leukemia (RBL-1) cells
- Format: cell-based
Criterion: IC50 strictly under 2 µM. Met: fulfilled. Not met: not fulfilled.

record-smiles | cat
Cc1ccc(Cl)c(Nc2ccccc2-c2nnc(NC#N)o2)c1Cl | fulfilled

Task: Record "Cn1c(S)nnc1-c1ccccc1Nc1cccc(C(F)(F)F)c1" : is its IC50 strictly below 2 µM?
Output: not fulfilled

Task: Try "Cc1ccc(Cl)c(Nc2ccccc2-c2nnc(NC#N)s2)c1Cl" next.
Output: fulfilled

Task: Try "Cc1ccc(Cl)c(Nc2ccccc2-c2nnc(N)s2)c1Cl" next.
Output: not fulfilled

Task: Try "Cc1ccc(Cl)c(Nc2ccccc2-c2nnc(S)s2)c1Cl" next.
Output: fulfilled

Task: Try "N#CNc1nnc(-c2ccccc2Nc2cccc(C(F)(F)F)c2)o1" next.
Output: fulfilled

Task: Try "Nc1nnc(-c2ccccc2Nc2cccc(C(F)(F)F)c2)s1" next.
Output: not fulfilled

Task: Try "Nc1nnc(-c2ccccc2Nc2cccc(C(F)(F)F)c2)o1" next.
Output: not fulfilled

Task: Try "N#CNc1nnc(-c2ccccc2Nc2cccc(C(F)(F)F)c2)s1" next.
Output: not fulfilled

* * *

- tgt: Polyunsaturated fatty acid 5-lipoxygenase (Rattus norvegicus)
- protocol-details: Inhibition of LTB4 in whole cell 5-lipoxygenase assay in an intact rat basophilic leukemia (RBL-1) cell line at 16 uM
- Assay type: cell-based
Item-by-item account of inhibition

Solved entries (count: 4):
record-smiles | tgt | recorded-metric | test-result
FC(F)(F)c1cccc(Nc2ccccc2-c2n[nH]c(S)n2)c1 | Polyunsaturated fatty acid 5-lipoxygenase (Rattus norvegicus) | inhibition | < 40%
Cn1c(O)nnc1-c1ccccc1Nc1cccc(C(F)(F)F)c1 | Polyunsaturated fatty acid 5-lipoxygenase (Rattus norvegicus) | inhibition | < 40%
Cc1ccc(Cl)c(Nc2ccccc2-c2n[nH]c(S)n2)c1Cl | Polyunsaturated fatty acid 5-lipoxygenase (Rattus norvegicus) | inhibition | < 40%
Cc1ccc(Cl)c(Nc2ccccc2-c2nnc(S)n2C)c1Cl | Polyunsaturated fatty acid 5-lipoxygenase (Rattus norvegicus) | inhibition | 86%

Task: Looking for the measured inhibition of "Cc1ccc(Cl)c(Nc2ccccc2-c2nnc(O)n2C)c1Cl" , can you help?
Output: < 40%

* * *

- tgt: Polyunsaturated fatty acid 5-lipoxygenase (Rattus norvegicus, UniProt P12527)
- Sequence (P12527 whole entry): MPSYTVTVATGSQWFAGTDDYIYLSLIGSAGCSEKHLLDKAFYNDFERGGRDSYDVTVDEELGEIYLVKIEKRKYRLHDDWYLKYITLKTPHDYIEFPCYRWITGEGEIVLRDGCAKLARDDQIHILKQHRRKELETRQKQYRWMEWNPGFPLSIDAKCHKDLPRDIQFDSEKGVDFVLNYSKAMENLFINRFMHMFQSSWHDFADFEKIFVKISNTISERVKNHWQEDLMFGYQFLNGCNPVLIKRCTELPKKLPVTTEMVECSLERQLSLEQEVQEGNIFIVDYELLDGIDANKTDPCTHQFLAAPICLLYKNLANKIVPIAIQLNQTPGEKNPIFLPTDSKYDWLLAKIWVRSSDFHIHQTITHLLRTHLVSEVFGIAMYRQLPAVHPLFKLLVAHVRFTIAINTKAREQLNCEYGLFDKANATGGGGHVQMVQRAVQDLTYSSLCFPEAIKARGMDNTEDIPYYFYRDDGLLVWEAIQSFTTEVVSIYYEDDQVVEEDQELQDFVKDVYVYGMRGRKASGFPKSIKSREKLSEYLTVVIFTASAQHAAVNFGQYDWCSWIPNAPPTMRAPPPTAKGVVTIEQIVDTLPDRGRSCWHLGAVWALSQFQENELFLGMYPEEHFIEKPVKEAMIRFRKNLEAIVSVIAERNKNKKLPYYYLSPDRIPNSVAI
- protocol-details: Inhibition 5-lipoxygenase mediated LTB4 formation in rat basophilic leukemia (RBL-1) cells
recorded-metric: pIC50
Reminder that pIC50 means the negative base-10 logarithm of the concentration expressed in mol/L.

record-smiles | recorded-metric | test-result
N#CNc1nnc(-c2ccccc2Nc2cccc(C(F)(F)F)c2)s1 | pIC50 | 5.77
Cc1ccc(Cl)c(Nc2ccccc2-c2nnc(NC#N)s2)c1Cl | pIC50 | 6.54
Cn1c(S)nnc1-c1ccccc1Nc1cccc(C(F)(F)F)c1 | pIC50 | 4.92

Task: Looking for the measured pIC50 of "Cc1ccc(Cl)c(Nc2ccccc2-c2nnc(N)s2)c1Cl" , can you help?
Output: 6.16
